Where these numbers come from: ChEMBL document CHEMBL1153099

- procedureSummary: Cytotoxicity against human HepG2(2.2.15) cells
- Type: cell-based
measuredEndpoint: pIC50
Field pIC50 (float): negative decimal logarithm of the concentration in molar.

Item under review: O=C1CCCC2=C1C(c1ccc(F)cc1)N=C(c1ccccn1)N2 (stereo not drawn) . Reported pIC50?
3.29

Item under review: O=C1CCCC2=C1C(c1ccccc1Cl)N=C(c1cccnc1)N2 (stereo not drawn) . Reported pIC50?
2.95

Item under review: O=C1CCCC2=C1C(c1ccc(F)cc1Cl)N=C(c1cccnc1)N2 (stereo not drawn) . Reported pIC50?
4.08
